From: the supplement of paper PMC9732359

The sequences listed here are annotated with their protein stability index.
# ASSAY NOTES: protein stability index of a GFP-peptide fusion (yeast GPS) (PSI 1-4); higher = more stable; sorted into four equal gates, so the index is relative within each strain
# TEST SETTINGS: ubr1∆
MEASUREMENT KIND: protein stability index

> print(dat)
                      sequence.content         measurement.kind  experimental.result
 1            TNYYLTTARNDLGVVFA [CSL4]  protein stability index                 2.82
 2           DKFPYKKLELPKYIDEL [SWP82]  protein stability index                 2.83
 3            SNDERIVKRLYEYGAVS [BRR2]  protein stability index                 3.14
 4           KFQLKKVLCLAVAVGNV [RPL1A]  protein stability index                 1.15
 5           AASFKKLYKTPIPIPAF [PRE10]  protein stability index                    3
 6   IIYHTTFSWLNAELLDY [YLR018C/POM34]  protein stability index                 2.41
 7            NQINSFWSLHSSTYYNL [NUT1]  protein stability index                 1.57
 8          KNPHDIIEGINAGEIEI [RPL12A]  protein stability index                 2.34
 9            KLKHMVLDKMHARARGP [RET1]  protein stability index                 2.65
10            IVKTTTKQRLDAYYDLE [PRP8]  protein stability index                 3.19
11           NARMPGMPNMPGMPNMP [SRP54]  protein stability index                 2.94
12            SLLASKSTYRTPNFDDV [RIP1]  protein stability index                 3.49
13  LTIFDSVDESARIKDAF [YJL039C/NUP192]  protein stability index                 3.02
14           SDPAAKKTATEPKQKAN [SRP21]  protein stability index                 3.01

====

protein stability index by entry:
# ASSAY NOTES: protein stability index of a GFP-peptide fusion (yeast GPS) (PSI 1-4); higher = more stable; sorted into four equal gates, so the index is relative within each strain
# TEST SETTINGS: san1∆
MEASUREMENT KIND: protein stability index

> print(dat)
                   sequence.content  experimental.result
1          KLKHMVLDKMHARARGP [RET1]                 2.47
2          LEIAKDFQPTELFDILS [IRR1]                  2.8
3        GVWVRYDSRSGTHNMYK [RPL20A]                  3.1
4          RKWVIFITKHLPLLILE [NUT1]                 1.21
5         YWQYKAGIPIGLKRSQL [SWP82]                 1.69
6        IKVEGAVGNLGNAVTVT [RPL22A]                 3.15
7  AFGGLNFGGGNNTTPSS [YJL041W/NSP1]                 1.46
